Recorded values, source patent US20210139548A1.

Target: T1, human neuropeptide Y2 receptor (human, UniProt P49146 1-381)
T1 construct: whole, on cells; also called hNPY2 receptor; hNPY2-R
T1 sequence (looked up): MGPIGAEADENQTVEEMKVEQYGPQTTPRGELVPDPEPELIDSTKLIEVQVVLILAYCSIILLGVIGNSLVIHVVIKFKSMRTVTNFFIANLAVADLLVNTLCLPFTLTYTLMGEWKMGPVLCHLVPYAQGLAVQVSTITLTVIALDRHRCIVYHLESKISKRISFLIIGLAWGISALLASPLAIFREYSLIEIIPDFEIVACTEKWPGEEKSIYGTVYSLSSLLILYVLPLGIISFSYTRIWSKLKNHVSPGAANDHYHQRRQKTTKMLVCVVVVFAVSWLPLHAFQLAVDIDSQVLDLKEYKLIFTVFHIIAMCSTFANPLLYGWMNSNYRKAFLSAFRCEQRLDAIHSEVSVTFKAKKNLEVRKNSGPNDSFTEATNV
Test: radioligand competition (125I-PYY(1-36)), hNPY2R membranes
*1 amine or outer side, *2 acyl side, *3 side chain or, on linkers, in order; H or OH if unused. Side-chain parts run from the residue outwards. The star is where a group is joined. C18 diacid = O=C(O)CCCCCCCCCCCCCCCCC(=O)*; γGlu = O=C(O)[C@H](CCC(=O)[*:2])N[*:1]; Isovaleryl = CC(C)CC(=O)*; AEEA = NCCOCCOCC(=O)O
MEASURED QUANTITY: pKi
Remember the convention: pKi equals -log10 of concentration in molar.

Check out these entries, answers already filled in.
Isovaleryl-APAK([AEEA-AEEA-γGlu-C18 diacid])PEEDATPEELQRYYVSLRHYYNWLTRQRY-NH2 [Compound 106] = 9.18
Isovaleryl-APAK([AEEA-AEEA-γGlu-C18 diacid])PEEDASPEEIQRYYVSLRHYYNWLTRQRY-NH2 [Compound 23] = 9.20
Isovaleryl-APEK([AEEA-AEEA-γGlu-C18 diacid])PEADASPEEIQRYYVSLRHYYNWLTRQRY-NH2 [Compound 53] = 9.62
Isovaleryl-APEK([AEEA-AEEA-γGlu-C18 diacid])PEEDATPEELQKYYVSLRHYYNWLTRQRY-NH2 [Compound 231] = 8.71
Isovaleryl-APEK([AEEA-AEEA-γGlu-C18 diacid])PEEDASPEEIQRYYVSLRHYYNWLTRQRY-NH2 [Compound 84] = 8.92

Query binder follows.
Given the entry Isovaleryl-APAK([AEEA-AEEA-γGlu-C18 diacid])PEEDASPEELQRYYVSLRHYYNWLTRQRY-NH2 [Compound 203] , report its measured pKi. 9.12
